The values you see were collected from patent US9422299B2.

# target or system: UniProt P21452
# Sequence (P21452 whole entry): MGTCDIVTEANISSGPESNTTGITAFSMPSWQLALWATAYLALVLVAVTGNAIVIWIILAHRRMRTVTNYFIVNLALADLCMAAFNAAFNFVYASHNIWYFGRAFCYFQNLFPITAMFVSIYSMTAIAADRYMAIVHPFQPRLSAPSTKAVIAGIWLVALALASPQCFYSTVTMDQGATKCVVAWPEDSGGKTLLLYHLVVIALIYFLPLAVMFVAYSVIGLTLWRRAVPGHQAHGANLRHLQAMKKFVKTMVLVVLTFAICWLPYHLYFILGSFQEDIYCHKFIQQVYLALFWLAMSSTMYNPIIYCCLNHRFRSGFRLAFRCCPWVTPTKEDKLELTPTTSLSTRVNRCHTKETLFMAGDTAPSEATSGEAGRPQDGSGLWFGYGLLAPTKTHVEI
assay endpoint: Ki

**Q:** Which measured Ki belongs to `COc1cccc(C(=O)N2CCn3c(-c4nc(C)ns4)nnc3[C@H]2C)c1` , tested on UniProt P21452?
**A:** > 30 µM

----------
# target or system: human NK-3 receptor (Homo sapiens (Human))
# Sequence (P29371 whole entry): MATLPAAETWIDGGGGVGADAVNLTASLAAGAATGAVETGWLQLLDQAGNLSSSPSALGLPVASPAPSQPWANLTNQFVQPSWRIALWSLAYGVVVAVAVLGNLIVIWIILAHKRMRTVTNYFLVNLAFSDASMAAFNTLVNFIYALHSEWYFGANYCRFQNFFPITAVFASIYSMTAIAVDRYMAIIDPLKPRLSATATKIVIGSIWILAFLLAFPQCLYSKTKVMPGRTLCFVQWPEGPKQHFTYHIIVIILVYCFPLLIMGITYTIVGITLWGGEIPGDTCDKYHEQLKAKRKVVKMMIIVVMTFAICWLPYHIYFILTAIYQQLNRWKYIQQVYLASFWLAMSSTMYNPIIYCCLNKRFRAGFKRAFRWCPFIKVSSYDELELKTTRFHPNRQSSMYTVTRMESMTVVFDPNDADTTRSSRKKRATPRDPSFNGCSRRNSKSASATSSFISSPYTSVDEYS
# test description: Aequorin functional assay with human NK-3 receptor (antagonist testing)
# Format: cell-based
# condition details: read-out: Functional assay: Aequorin assay with human NK-3 receptor hNK-3 - AEQ (antagonist IC50)
assay endpoint: IC50

**Q:** # query: IC50 of entry `COc1cccc(C(=O)N2CCn3c(-c4nc(C)ns4)nnc3[C@H]2C)c1`
**A:** 0.22 µM

----------
# target or system: human NK-1 receptor (Homo sapiens (Human), UniProt P25103)
# Sequence (P25103 whole entry): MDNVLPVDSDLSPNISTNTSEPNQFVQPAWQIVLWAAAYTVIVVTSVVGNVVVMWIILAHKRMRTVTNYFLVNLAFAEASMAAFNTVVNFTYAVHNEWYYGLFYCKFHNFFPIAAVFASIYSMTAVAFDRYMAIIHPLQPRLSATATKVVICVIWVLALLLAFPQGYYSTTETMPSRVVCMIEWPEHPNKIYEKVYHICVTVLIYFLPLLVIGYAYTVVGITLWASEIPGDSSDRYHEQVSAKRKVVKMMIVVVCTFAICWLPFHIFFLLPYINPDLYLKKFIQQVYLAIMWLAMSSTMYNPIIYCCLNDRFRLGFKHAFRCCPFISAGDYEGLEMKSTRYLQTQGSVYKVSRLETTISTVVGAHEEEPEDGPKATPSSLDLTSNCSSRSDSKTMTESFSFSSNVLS
pKi: −log10 of the molar value.
assay endpoint: pKi

**Q:** Which pKi reading was recorded for the compound `COc1cccc(C(=O)N2CCn3c(-c4nc(C)ns4)nnc3[C@H]2C)c1` ?
**A:** < 4.52

----------
# target or system: UniProt:P29371
assay endpoint: pKi
As a rule, pKi stands for the negative log10 of the concentration, concentration in M.

**Q:** Recorded pKi of `COc1cccc(C(=O)N2CCn3c(-c4nc(C)ns4)nnc3[C@H]2C)c1` , please.
**A:** 7.00

----------
# target or system: hERG channel (Homo sapiens (Human), UniProt Q12809)
# Sequence (Q12809 whole entry): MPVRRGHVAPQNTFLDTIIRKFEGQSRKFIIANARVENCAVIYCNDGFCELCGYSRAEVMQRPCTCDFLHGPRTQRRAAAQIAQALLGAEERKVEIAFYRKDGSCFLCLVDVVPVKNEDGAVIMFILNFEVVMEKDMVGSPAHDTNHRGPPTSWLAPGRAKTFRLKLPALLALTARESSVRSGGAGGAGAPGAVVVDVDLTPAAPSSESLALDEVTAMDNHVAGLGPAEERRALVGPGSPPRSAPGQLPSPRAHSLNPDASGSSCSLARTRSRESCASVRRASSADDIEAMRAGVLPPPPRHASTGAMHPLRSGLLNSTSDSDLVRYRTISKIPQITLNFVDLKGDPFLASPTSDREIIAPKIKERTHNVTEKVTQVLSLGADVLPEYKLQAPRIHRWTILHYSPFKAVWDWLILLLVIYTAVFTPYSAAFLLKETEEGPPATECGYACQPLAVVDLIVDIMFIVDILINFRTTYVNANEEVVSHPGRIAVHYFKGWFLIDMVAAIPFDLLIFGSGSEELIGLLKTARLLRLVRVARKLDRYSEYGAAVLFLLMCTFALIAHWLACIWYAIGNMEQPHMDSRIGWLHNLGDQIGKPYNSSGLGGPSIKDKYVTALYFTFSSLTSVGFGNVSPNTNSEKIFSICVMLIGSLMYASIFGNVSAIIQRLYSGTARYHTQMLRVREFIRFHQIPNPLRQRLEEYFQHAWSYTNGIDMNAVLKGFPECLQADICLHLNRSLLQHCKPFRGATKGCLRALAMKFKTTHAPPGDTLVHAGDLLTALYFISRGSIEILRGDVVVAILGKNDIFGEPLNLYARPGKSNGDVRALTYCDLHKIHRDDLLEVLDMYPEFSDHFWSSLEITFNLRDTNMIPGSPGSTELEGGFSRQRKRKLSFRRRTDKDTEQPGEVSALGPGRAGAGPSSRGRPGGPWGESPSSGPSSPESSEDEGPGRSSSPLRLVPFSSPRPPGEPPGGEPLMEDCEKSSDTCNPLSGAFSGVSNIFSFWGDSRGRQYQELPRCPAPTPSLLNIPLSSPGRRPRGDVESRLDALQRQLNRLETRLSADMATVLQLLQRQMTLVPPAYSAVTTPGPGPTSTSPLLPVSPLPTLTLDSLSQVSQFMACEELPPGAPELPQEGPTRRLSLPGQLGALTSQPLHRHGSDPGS
# test description: hERG inhibition assay (manual patch-clamp, HEK 293 cells)
# condition details: 5 minutes of exposure, read-out: CardioSafety (hERG IC50)
Listed here are compounds together with their documented IC50.
The response must be a number in µM with no trailing unit.

Reference set (2 entries):
>  <compound>
Cc1nsc(-c2nnc3n2CCN(C(=O)c2ccc(C#N)cc2)[C@@H]3C)n1 [Compound 29]

>  <result unit>
µM

>  <IC50>
59

$$$$
>  <compound>
Cc1nsc(-c2nnc3n2CCN(C(=O)c2ccc(F)c(Cl)c2)[C@@H]3C)n1 [Compound 6]

>  <result unit>
µM

>  <IC50>
45

$$$$

**Q:** Reported IC50, compound CCc1nsc(-c2nnc3n2CCN(C(=O)c2ccc(F)cc2)[C@@H]3C)n1 [Compound 2] : ____
**A:** 32

**Q:** Same read-out for Cc1nsc(-c2nnc3n2CCN(C(=O)c2ccc(Cl)c(Cl)c2)[C@@H]3C)n1 [Compound 1] ?
**A:** 42
